Sourced from patent US20190134153A1

# experimental.system: DMPK(h) (Homo sapiens)
# Sequence (Q09013 1-629): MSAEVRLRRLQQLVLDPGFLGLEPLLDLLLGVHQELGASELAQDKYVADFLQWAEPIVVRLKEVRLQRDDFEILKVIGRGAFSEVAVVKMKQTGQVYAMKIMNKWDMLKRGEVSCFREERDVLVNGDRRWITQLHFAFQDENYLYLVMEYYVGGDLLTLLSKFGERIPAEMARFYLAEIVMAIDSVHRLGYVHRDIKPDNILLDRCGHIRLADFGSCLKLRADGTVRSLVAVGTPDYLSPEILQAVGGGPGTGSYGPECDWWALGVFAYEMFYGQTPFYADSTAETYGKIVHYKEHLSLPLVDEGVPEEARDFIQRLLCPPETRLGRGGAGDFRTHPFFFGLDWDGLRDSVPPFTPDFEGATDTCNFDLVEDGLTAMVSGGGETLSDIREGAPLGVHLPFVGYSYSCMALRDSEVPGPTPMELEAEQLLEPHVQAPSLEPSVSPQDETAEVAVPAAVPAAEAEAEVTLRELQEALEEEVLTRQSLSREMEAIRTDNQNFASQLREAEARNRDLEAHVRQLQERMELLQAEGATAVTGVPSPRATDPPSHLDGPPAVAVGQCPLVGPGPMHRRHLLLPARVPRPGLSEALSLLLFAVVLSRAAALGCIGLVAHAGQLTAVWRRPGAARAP
# procedure.text: Kinase Profiling Assay
# Assay type: biochemical
# stated.conditions: 100 μM
We begin with a simple list: items and their reported % activity.
Respond with the bare value in %.

Here are 3 sequences together with their reported answers.
> print(dat)
                      sequence.record  quantitative.readout
1    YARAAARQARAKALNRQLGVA [MMI-0200]                    66
2   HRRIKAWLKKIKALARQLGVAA [MMI-0500]                    12
3  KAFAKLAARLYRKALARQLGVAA [MMI-0400]                    54

In the following, a different sequence is considered.
Q. Param item = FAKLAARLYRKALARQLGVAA [MMI-0300] ; retrieve measured % activity.
A. 59
